Measured pull-down binding Z-score, listed per entry.
- Tested on: G-clamp-N3 (biotin conjugate)
- experimental details: pull-down binding Z-score (relative to library population); higher = stronger binding
- condition description: RNA library: Library-1 (pre-miRNA loops + repeats)

>  <record sequence>
AUGGUGUUUGUGAGUUGAUUGACAUCGU [hsa-mir-6506]

>  <pull-down binding Z-score>
-0.212

$$$$
>  <record sequence>
GGAGGGUGAGCUUUCUGAAAACCCCUCC [hsa-mir-188]

>  <pull-down binding Z-score>
0.536

$$$$
>  <record sequence>
CUGGGAGGUGUGAUCCUGUGCUUCCUGG [hsa-mir-3689a]

>  <pull-down binding Z-score>
-0.339

$$$$
>  <record sequence>
UUCUGUGGUUUGAAAGGAA [hsa-mir-1323]

>  <pull-down binding Z-score>
1.07

$$$$
>  <record sequence>
CUCUAGACUCUAUUAUAGUUUCCUGAG [hsa-mir-558]

>  <pull-down binding Z-score>
-1.03

$$$$
>  <record sequence>
UGGUGGUGAAUUCAUGAGUCGCCA [hsa-mir-3115]

>  <pull-down binding Z-score>
0.372

$$$$
>  <record sequence>
GGCUGCUGGAUUGAAUUAGCUGCA [hsa-mir-1286]

>  <pull-down binding Z-score>
-0.74

$$$$
>  <record sequence>
UCUUCCCAAAGUUGAGAAAA [hsa-mir-320d-1]

>  <pull-down binding Z-score>
-1.32

$$$$
>  <record sequence>
UUUGUUGAAAGAAUAAAUAAACCAACAAG [hsa-mir-1264]

>  <pull-down binding Z-score>
-0.724

$$$$
>  <record sequence>
GGAACACUAUAUUAAUCAGGUUUCC [hsa-mir-6509]

>  <pull-down binding Z-score>
-0.0674

$$$$
>  <record sequence>
UGCAGUUCUGUUGGGUGACAGCA [hsa-mir-6499]

>  <pull-down binding Z-score>
-0.982

$$$$
>  <record sequence>
CAGACUCUG [hsa-mir-4326]

>  <pull-down binding Z-score>
1.33

$$$$
>  <record sequence>
CCCAUUUAAAAUAUGGAA [hsa-mir-548ai]

>  <pull-down binding Z-score>
-2.02

$$$$
>  <record sequence>
CUUGCGGGGCCUUCGCCGCACACAAG [hsa-mir-99b]

>  <pull-down binding Z-score>
1.51

$$$$
>  <record sequence>
AGGCCAUACGUGUUGGAGAUU [hsa-mir-4461]

>  <pull-down binding Z-score>
0.253

$$$$
>  <record sequence>
CUCGCUGGGAGGUGUGCUAUCGUCUUCCCCGGGAG [hsa-mir-3689d-1]

>  <pull-down binding Z-score>
0.293

$$$$
>  <record sequence>
CAUCCCGGACGGCCUGUGAGGGAUG [hsa-mir-4787]

>  <pull-down binding Z-score>
1.57

$$$$
>  <record sequence>
UUCAUGUUCACUGAAAGGUAGAUUUUAAAAACAUGAA [hsa-mir-4790]

>  <pull-down binding Z-score>
-0.0488

$$$$
>  <record sequence>
CAGGCGGGGCAGCCCAAUGCCAUGGGCCUGAU [hsa-mir-4695]

>  <pull-down binding Z-score>
2.14

$$$$
>  <record sequence>
ACUUUCUGGUGCCAGAAUGAAAGU [hsa-mir-512-2_512-1]

>  <pull-down binding Z-score>
-0.15

$$$$
>  <record sequence>
GCAGUGUCGUGGUCACAGCUUGCUGC [hsa-mir-1273h]

>  <pull-down binding Z-score>
1.45

$$$$
>  <record sequence>
UGGAGGCUGACCUCUUACUUUCGGUCGGUCUUCUU [hsa-mir-4258]

>  <pull-down binding Z-score>
-1.13

$$$$
>  <record sequence>
UUUUCGCUUUAUAUGUGACGAAAC [hsa-mir-495]

>  <pull-down binding Z-score>
0.0902

$$$$
>  <record sequence>
UUGUGUGGUAUCCGUAUAGUCACAG [hsa-mir-10b]

>  <pull-down binding Z-score>
-0.0547

$$$$
>  <record sequence>
GGCUCGUCUGUGUUGCCAAUCGACUC [hsa-mir-1307]

>  <pull-down binding Z-score>
-0.468

$$$$
>  <record sequence>
UAUGCCUACAAAAUCCCUCCAGACUGGCAUA [hsa-mir-4666a]

>  <pull-down binding Z-score>
-0.858

$$$$
>  <record sequence>
GCUUCCGCUCUGCAGAGGC [hsa-mir-6822]

>  <pull-down binding Z-score>
-0.531

$$$$
>  <record sequence>
CAGAGGUCCCACAGCAGGGCUGGAAAGCACACCUGUGGGACUUCUG [hsa-mir-3922]

>  <pull-down binding Z-score>
0.395

$$$$
